- TEST METHOD NOTES: The drug is tested on WLS-052 corresponding to human gut metagenome with ENA study accession number: PRJEB37062 and ENA sample accession number: ERS12561747 for biotransformation under anaerobic condition. The drug concentrations were measured over 9 timepoints collected between 0 and 24 hours of incubation by liquid-chromatography-coupled mass spectrometry (LC–MS); further: call rule not given here
- EXPERIMENTAL PARAMETERS: 2 µM
READOUT: Bacterial Biotransformation

Recorded Bacterial Biotransformation, per entry:
{"columns": ["MOLECULE", "Bacterial Biotransformation"],
 "data": [
  ["COc1ccccc1OCC(O)CN1CCN(CC(=O)Nc2c(C)cccc2C)CC1 (stereo not given)", "Compound NOT metabolized"],
  ["CS(=O)(=O)O.OC(CCN1CCCCC1)(c1ccccc1)c1ccccc1 [PRIDINOL METHANESULFONATE]", "Compound NOT metabolized"],
  ["O=c1[nH]c2ccccc2n1C1CCN(CCCC(c2ccc(F)cc2)c2ccc(F)cc2)CC1 [PIMOZIDE]", "Compound metabolized"],
  ["CN1C(=O)CCS(=O)(=O)C1c1ccc(Cl)cc1 (stereo not given)", "Compound NOT metabolized"]
]}

Prompt: Any idea what Bacterial Biotransformation was measured for CCN(CC)C(C)CN1c2ccccc2Sc2ccccc21 (stereo not given) ?
Response: Compound metabolized

---

- EXPERIMENTAL PARAMETERS: human gut metagenome, 24 h, 2 µM
READOUT: Bacterial Biotransformation

Recorded Bacterial Biotransformation, per entry:
{"columns": ["COMPOUND", "Bacterial Biotransformation"],
 "data": [
  ["COc1cc2nc(N(C)CCCNC(=O)C3CCCO3)nc(N)c2cc1OC (centres undefined)", "Compound NOT metabolized"],
  ["CCN(CC)CCNC(=O)c1cc(Cl)c(N)cc1OC [METOCLOPRAMIDE]", "Compound NOT metabolized"],
  ["CC(C)OC(=O)C(C)(C)Oc1ccc(C(=O)c2ccc(Cl)cc2)cc1 [FENOFIBRATE]", "Compound metabolized"],
  ["OC(CCN1CCCCC1)(c1ccccc1)C1CC2C=CC1C2 (centres undefined)", "Compound NOT metabolized"],
  ["Cc1cn([C@H]2C[C@H](N=[N+]=[N-])[C@@H](CO)O2)c(=O)[nH]c1=O", "Compound NOT metabolized"]
]}

Next up:
Prompt: Any idea what Bacterial Biotransformation was measured for CC(C)NCC(O)COc1ccc(COCCOC(C)C)cc1.CC(C)NCC(O)COc1ccc(COCCOC(C)C)cc1.O=C(O)/C=C/C(=O)O (centres undefined) [BISOPROLOL FUMARATE] ?
Response: Compound NOT metabolized

---

- TEST METHOD NOTES: The drug is tested on WLS-240 corresponding to human gut metagenome with ENA study accession number: PRJEB37062 and ENA sample accession number: ERS12561773 for biotransformation under anaerobic condition. The drug concentrations were measured over 9 timepoints collected between 0 and 24 hours of incubation by liquid-chromatography-coupled mass spectrometry (LC–MS)
- EXPERIMENTAL PARAMETERS: 2 µM
READOUT: Bacterial Biotransformation

{"columns": ["MOLECULE", "VALUE OBSERVED"],
 "data": [
  ["OC(Cn1cncn1)(Cn1cncn1)c1ccc(F)cc1F", "Compound metabolized"],
  ["CC(C(=O)O)c1ccc2c(c1)Cc1cccnc1O2 (centres undefined)", "Compound metabolized"],
  ["COCCc1ccc(OCC(O)CNC(C)C)cc1.COCCc1ccc(OCC(O)CNC(C)C)cc1.O=C(O)C(O)C(O)C(=O)O (centres undefined) [METOPROLOL TARTRATE]", "Compound metabolized"]
]}

---

- TEST METHOD NOTES: The drug is tested on Z-024 corresponding to pig gut metagenome with ENA study accession number: PRJEB37062 and ENA sample accession number: ERS12561823 for biotransformation under anaerobic condition. The drug concentrations were measured over 9 timepoints collected between 0 and 24 hours of incubation by liquid-chromatography-coupled mass spectrometry (LC–MS)
- EXPERIMENTAL PARAMETERS: 2 µM
READOUT: Bacterial Biotransformation

Recorded Bacterial Biotransformation, per entry:
{"columns": ["COMPOUND", "READOUT", "VALUE OBSERVED"],
 "data": [
  ["COC1=CC(=O)C[C@@H](C)[C@]12Oc1c(Cl)c(OC)cc(OC)c1C2=O", "Bacterial Biotransformation", "Compound metabolized"],
  ["CC[C@@H](CO)NC(=O)[C@@H]1C=C2c3cccc4c3c(cn4C)C[C@H]2N(C)C1.O=C(O)/C=C\\C(=O)O [METHYSERGIDE MALEATE]", "Bacterial Biotransformation", "Compound NOT metabolized"],
  ["OCCN1CCN(CCCN2c3ccccc3Sc3ccc(C(F)(F)F)cc32)CC1", "Bacterial Biotransformation", "Compound metabolized"],
  ["OC(CCN1CCCCC1)(c1ccccc1)C1CCCCC1 (configuration not stated)", "Bacterial Biotransformation", "Compound metabolized"],
  ["CN(C)C(=O)C(CCN1CCC(O)(c2ccc(Cl)cc2)CC1)(c1ccccc1)c1ccccc1 [LOPERAMIDE]", "Bacterial Biotransformation", "Compound metabolized"]
]}

Prompt: Any idea what Bacterial Biotransformation was measured for `CC(C)c1c(C(=O)Nc2ccccc2)c(-c2ccccc2)c(-c2ccc(F)cc2)n1CC[C@@H](O)C[C@@H](O)CC(=O)O` ?
Response: Compound NOT metabolized

Prompt: Also `CCOc1ccc(NC(C)=O)cc1` ?
Response: Compound NOT metabolized

Prompt: Also CCN(CC)C(C)CN1c2ccccc2Sc2ccccc21 (configuration not stated) ?
Response: Compound metabolized

Prompt: Also `COc1cc2nc(N3CCN(C(=O)c4ccco4)CC3)nc(N)c2cc1OC` ?
Response: Compound NOT metabolized

Prompt: Also CCN(CC)CCNC(=O)c1cc(Cl)c(N)cc1OC [METOCLOPRAMIDE] ?
Response: Compound NOT metabolized

Prompt: Also `C#C[C@]1(O)CC[C@H]2[C@@H]3CCC4=Cc5oncc5C[C@]4(C)[C@H]3CC[C@@]21C` ?
Response: Compound metabolized

Prompt: Also NC(CO)(CO)CO.O=C(c1ccccc1)c1ccc2n1CCC2C(=O)O (configuration not stated) ?
Response: Compound metabolized

Prompt: Also `Cc1cn([C@H]2C[C@H](N=[N+]=[N-])[C@@H](CO)O2)c(=O)[nH]c1=O` ?
Response: Compound NOT metabolized

Prompt: Also CNCCC(Oc1ccc(C(F)(F)F)cc1)c1ccccc1 (configuration not stated) ?
Response: Compound NOT metabolized

Prompt: Also `CNC(=C[N+](=O)[O-])NCCSCc1csc(CN(C)C)n1` ?
Response: Compound NOT metabolized

Prompt: Also CCC(COC(=O)c1cc(OC)c(OC)c(OC)c1)(c1ccccc1)N(C)C.O=C(O)/C=C\C(=O)O (configuration not stated) ?
Response: Compound NOT metabolized

Prompt: Also `Cc1nc(-c2ccc(OCC(C)C)c(C#N)c2)sc1C(=O)O` ?
Response: Compound metabolized

Prompt: Also `CN1CCN(C2=Nc3cc(Cl)ccc3Nc3ccccc32)CC1` ?
Response: Compound NOT metabolized

---

- TEST METHOD NOTES: The drug is tested on WLS-170 corresponding to human gut metagenome with ENA study accession number: PRJEB37062 and ENA sample accession number: ERS12561762 for biotransformation under anaerobic condition. The drug concentrations were measured over 9 timepoints collected between 0 and 24 hours of incubation by liquid-chromatography-coupled mass spectrometry (LC–MS)
- EXPERIMENTAL PARAMETERS: 2 µM
READOUT: Bacterial Biotransformation

Recorded Bacterial Biotransformation, per entry:
{"columns": ["COMPOUND", "Bacterial Biotransformation"],
 "data": [
  ["OCCOCCN1CCN(C2=Nc3ccccc3Sc3ccccc32)CC1", "Compound metabolized"],
  ["C=CCN1CC[C@]23c4c5ccc(O)c4O[C@H]2C(=O)CC[C@@]3(O)[C@H]1C5", "Compound NOT metabolized"],
  ["COc1cc2nc(N(C)CCCNC(=O)C3CCCO3)nc(N)c2cc1OC (stereo not given)", "Compound metabolized"],
  ["Cc1ccc(-c2nc3ccc(C)cn3c2CC(=O)N(C)C)cc1", "Compound NOT metabolized"]
]}

Next up:
Prompt: Any idea what Bacterial Biotransformation was measured for `Cc1ccc(/C(=C\CN2CCCC2)c2ccccn2)cc1` ?
Response: Compound metabolized

---

- TEST METHOD NOTES: The drug is tested on WLS-038 corresponding to human gut metagenome with ENA study accession number: PRJEB37062 and ENA sample accession number: ERS12561745 for biotransformation under anaerobic condition. The drug concentrations were measured over 9 timepoints collected between 0 and 24 hours of incubation by liquid-chromatography-coupled mass spectrometry (LC–MS)
- EXPERIMENTAL PARAMETERS: 2 µM
READOUT: Bacterial Biotransformation

{"columns": ["COMPOUND", "Bacterial Biotransformation"],
 "data": [
  ["Br.CN(C)CCCC1(c2ccc(F)cc2)OCc2cc(C#N)ccc21 (stereo not drawn) [CITALOPRAM HYDROBROMIDE]", "Compound NOT metabolized"],
  ["COC(=O)[C@H]1[C@H]2C[C@@H]3c4[nH]c5cc(OC)ccc5c4CCN3C[C@H]2C[C@@H](OC(=O)c2cc(OC)c(OC)c(OC)c2)[C@@H]1OC", "Compound NOT metabolized"],
  ["CC[C@@H](CO)NC(=O)[C@@H]1C=C2c3cccc4c3c(cn4C)C[C@H]2N(C)C1.O=C(O)/C=C\\C(=O)O [METHYSERGIDE MALEATE]", "Compound NOT metabolized"],
  ["CC(C)NCC(O)c1ccc(NS(C)(=O)=O)cc1 (stereo not drawn)", "Compound NOT metabolized"],
  ["CCc1nn(CCCN2CCN(c3cccc(Cl)c3)CC2)c(=O)n1CCOc1ccccc1", "Compound metabolized"]
]}

Prompt: Any idea what Bacterial Biotransformation was measured for `CN1C(C(=O)Nc2ccccn2)=C(O)c2sccc2S1(=O)=O` ?
Response: Compound NOT metabolized

Prompt: Also CN1C(=O)CC(C)(c2ccccc2)C1=O (stereo not drawn) [METHSUXIMIDE] ?
Response: Compound NOT metabolized

Prompt: Also CN(C)C(=O)C(CCN1CCC(O)(c2ccc(Cl)cc2)CC1)(c1ccccc1)c1ccccc1 [LOPERAMIDE] ?
Response: Compound metabolized
